# Tested on: Carrageenin induced thermal hyperalgesia in the rat
# Experimental Details: Carrageenin induced hyperalgesia, rat paw pressure test
# Format: in vivo
# Recorded Conditions: po, 30 mg/kg p.o., 2 h post dose, MPE = maximum possible effect, baseline value prior to carrageenin
Give inhibition in vivo at 30 mg/kg for every item shown.
Form field: result (number plus unit)

Report inhibition in vivo at 30 mg/kg for every entry below.
1. C=CC(=O)N(CCN(CC)CC)c1ccc(Cl)c2ccccc12
2. CCC(=O)N(CCN1CCOCC1)c1ccc(Cl)c2ccccc12
3. CCC(=O)N(c1ccc(Cl)c2ccccc12)C(C)CN(CC)CC (stereo not shown)
4. CCC(=O)N(CCN(CC)CC)c1ccc(Br)c2ccccc12
5. CCC(=O)N(CCNCc1ccccc1)c1cccc2ccccc12
6. CCC(=O)N(CCN(CC)CC)c1ccc(Cl)c2ccccc12

["0.9%", "30.7%", "27.5%", "7.7%", "3.13%", "22.2%"]

I'd like to know its inhibition in vivo at 30 mg/kg. The compound in question is CCC(=O)N(CCN(CC)CC)c1cccc2c1-c1ccccc1C2=O
6.4%
